Measured values drawn from paper PMC11982978 for this set.

Molecular target: T1, Active phosphorylated His6-tagged ERK2 D319N (rat (p-0033 says mouse)), P63086
T1 chain: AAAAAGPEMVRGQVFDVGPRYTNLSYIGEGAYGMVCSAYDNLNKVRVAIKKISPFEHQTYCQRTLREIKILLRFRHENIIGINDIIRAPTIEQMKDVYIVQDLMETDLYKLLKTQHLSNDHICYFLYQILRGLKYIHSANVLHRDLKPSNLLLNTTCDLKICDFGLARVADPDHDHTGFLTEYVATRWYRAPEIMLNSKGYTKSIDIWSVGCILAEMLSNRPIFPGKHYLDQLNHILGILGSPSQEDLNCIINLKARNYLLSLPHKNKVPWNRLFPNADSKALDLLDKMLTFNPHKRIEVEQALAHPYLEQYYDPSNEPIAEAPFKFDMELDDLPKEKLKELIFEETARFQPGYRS
Details: modification not given; phosphorylated (active form; sites not given)
Ends that are not written are not given here.
Measurement kind: IC50 (µM)
Numbers only, in µM.

Q: Consider the binder shown here: PQKGRKPRDLELPL (not fully specified (some residues, N-terminus)) [ELK1] What is its recorded IC50?
Result: 32
